- system: Tyrosine-protein kinase BTK (Homo sapiens)
- Sequence (Q06187 whole entry): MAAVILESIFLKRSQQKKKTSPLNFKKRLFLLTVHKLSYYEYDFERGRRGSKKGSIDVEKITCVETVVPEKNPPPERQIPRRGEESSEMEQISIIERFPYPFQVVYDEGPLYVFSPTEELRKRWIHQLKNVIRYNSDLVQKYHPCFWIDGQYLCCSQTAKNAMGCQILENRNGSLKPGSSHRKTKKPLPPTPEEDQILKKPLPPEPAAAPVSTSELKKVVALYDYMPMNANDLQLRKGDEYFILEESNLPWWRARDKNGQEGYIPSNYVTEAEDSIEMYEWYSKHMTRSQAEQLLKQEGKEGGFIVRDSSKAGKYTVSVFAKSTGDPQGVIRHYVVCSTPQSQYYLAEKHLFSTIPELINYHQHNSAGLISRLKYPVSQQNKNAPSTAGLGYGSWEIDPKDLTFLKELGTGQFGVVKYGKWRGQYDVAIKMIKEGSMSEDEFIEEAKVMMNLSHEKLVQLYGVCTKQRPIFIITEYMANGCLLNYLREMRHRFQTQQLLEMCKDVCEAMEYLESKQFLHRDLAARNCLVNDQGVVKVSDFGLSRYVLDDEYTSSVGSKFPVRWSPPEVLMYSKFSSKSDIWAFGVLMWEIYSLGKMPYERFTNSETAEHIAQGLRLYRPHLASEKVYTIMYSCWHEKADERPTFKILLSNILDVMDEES
- measurement_protocol: Inhibition of BTK in human WBC
experimental_endpoint: IC50 (nM)
Please respond with the number in nM and leave the unit unwritten.

### Prompt If you can, please state the reported IC50 value of C=CC(=O)N[C@H]1CCN(c2ccc(C(N)=O)c(Nc3ccc(N4C[C@@H](C)O[C@@H](C)C4)cc3)n2)C1 .
### Response 52

====

- measurement_protocol: Clearance in rat microsomes assessed per mg protein
- Assay type: ADME, Microsome
experimental_endpoint: microsomal CLint

### Prompt What value of microsomal CLint has been reported for the following compound? C=CC(=O)N[C@H]1CCN(c2ccc(C(N)=O)c(Nc3ccc(C(=O)N4CCOCC4)cc3)n2)C1
### Response < 10 µL/min/mg
